Target: human TLR8 (Homo sapiens, UniProt Q9NR97)
Construct: expressed in transfected cells; host or cells: HEK293 (ATCC CRL-1573), pIRES vector, G-418 selected
Sequence (Q9NR97 27-1041): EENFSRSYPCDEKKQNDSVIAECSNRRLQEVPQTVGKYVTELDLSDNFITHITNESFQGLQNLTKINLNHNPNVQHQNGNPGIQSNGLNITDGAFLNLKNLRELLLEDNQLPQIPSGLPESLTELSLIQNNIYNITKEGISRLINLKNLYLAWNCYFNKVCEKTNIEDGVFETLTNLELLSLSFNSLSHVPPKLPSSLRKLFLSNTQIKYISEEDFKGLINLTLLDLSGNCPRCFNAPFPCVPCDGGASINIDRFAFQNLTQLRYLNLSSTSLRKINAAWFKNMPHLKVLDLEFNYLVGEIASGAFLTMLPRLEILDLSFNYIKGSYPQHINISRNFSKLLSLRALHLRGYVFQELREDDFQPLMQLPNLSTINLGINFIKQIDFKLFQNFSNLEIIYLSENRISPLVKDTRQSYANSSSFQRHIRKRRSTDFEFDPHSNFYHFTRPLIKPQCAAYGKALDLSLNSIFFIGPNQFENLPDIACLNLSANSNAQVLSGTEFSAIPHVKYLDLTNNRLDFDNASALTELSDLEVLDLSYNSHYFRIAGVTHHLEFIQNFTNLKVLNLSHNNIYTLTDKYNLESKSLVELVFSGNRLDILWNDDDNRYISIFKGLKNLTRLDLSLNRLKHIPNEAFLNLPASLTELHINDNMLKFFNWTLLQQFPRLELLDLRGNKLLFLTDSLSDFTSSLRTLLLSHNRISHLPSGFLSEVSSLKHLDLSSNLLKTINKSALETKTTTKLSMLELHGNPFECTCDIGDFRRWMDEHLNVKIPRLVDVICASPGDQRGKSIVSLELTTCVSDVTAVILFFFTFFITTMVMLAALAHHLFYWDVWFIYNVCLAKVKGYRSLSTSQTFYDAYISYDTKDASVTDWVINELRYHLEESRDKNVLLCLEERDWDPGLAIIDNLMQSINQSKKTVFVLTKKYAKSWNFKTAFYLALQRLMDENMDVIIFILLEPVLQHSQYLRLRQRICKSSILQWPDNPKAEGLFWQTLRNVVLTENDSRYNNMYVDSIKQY
Assay: NFκB-luciferase reporter assay in HEK293 cells transfected with human TLR8 (HEK293-TLR8)
Format: cell-based
Details: HEK293-TLR8, 10 μM IRM, 16 hours
Labelling field: enter TRUE if recorded TLR8: fold increase of NFκB-induced luciferase signal compared to a DMSO control is less than 1 fold increase. Enter FALSE if it equals or exceeds that cut-off.

>>> df
                                    compound                         system_under_test  answer_label
 0     Cc1nc2c(N)nc3ccccc3c2n1CCOCCCc1cccnc1  human TLR8 (Homo sapiens, UniProt Q9NR97)          TRUE
 1       Cc1nc2c(N)nc3ccccc3c2n1CCOCc1ccccc1  human TLR8 (Homo sapiens, UniProt Q9NR97)         FALSE
 2       CCCCc1nc2c(N)nc(C)c(C)c2n1CC(C)(C)O  human TLR8 (Homo sapiens, UniProt Q9NR97)         FALSE
 3       COCCc1nc2c(N)nc3ccccc3c2n1CC(C)(C)O  human TLR8 (Homo sapiens, UniProt Q9NR97)         FALSE
 4  CCCCc1nc2c(N)nc3cccnc3c2n1CCNC(=O)C(N)CC(C)C (centres unmarked)  human TLR8 (Homo sapiens, UniProt Q9NR97)         FALSE
 5  COCCc1nc2c(N)nc3ccccc3c2n1CCCCCCCCNC(=O)Nc1ccccc1  human TLR8 (Homo sapiens, UniProt Q9NR97)          TRUE
 6  CCCCc1nc2c(N)nc3ccccc3c2n1CCCCCS(C)(=O)=O  human TLR8 (Homo sapiens, UniProt Q9NR97)          TRUE
 7  CCCCc1nc2c(N)nc3ccccc3c2n1CCNS(=O)(=O)CCC  human TLR8 (Homo sapiens, UniProt Q9NR97)         FALSE
 8  Nc1nc2ccccc2c2c1ncn2CCCCNC(=O)c1ccccc1Oc1ccccc1  human TLR8 (Homo sapiens, UniProt Q9NR97)         FALSE
 9  CCOCc1nc2c(N)nc3ccccc3c2n1CCNC(=O)Nc1cccc(C#N)c1  human TLR8 (Homo sapiens, UniProt Q9NR97)         FALSE
10  COCCc1nc2c(N)nc3ccccc3c2n1CCOCCN(C)C(=O)C1CCCCC1  human TLR8 (Homo sapiens, UniProt Q9NR97)         FALSE

Where do these numbers come from? They come from patent US20040171086A1.
